- measuredTarget: T1, hMC3-R (human, UniProt P41968 1-323)
- T1 construct: whole, on cells; Assayed as membranes of CHO-K1 cells expressing the receptor; also called hMC-R receptor subtype 3; melacortin-3 (MC3-R)
- T1 sequence (P41968 whole entry): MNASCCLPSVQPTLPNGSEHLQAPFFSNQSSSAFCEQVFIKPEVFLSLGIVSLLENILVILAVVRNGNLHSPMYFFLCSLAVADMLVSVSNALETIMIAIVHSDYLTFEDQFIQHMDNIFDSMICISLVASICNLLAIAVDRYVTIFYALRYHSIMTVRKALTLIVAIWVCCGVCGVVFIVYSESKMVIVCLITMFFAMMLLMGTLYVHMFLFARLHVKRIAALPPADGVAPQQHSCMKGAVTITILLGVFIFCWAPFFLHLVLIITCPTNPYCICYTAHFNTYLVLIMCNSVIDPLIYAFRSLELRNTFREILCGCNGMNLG
- procedureText: competition with [125I]-NDP-α-MSH, CHO-K1 membranes
Bridge positions count the residues as written; N and C are the ends. Square brackets hold non-standard residues; d marks the D form. Cha = N[C@@H](CC1CCCCC1)C(=O)O; Pen = CC(C)(S)[C@H](N)C(=O)O; Nle = CCCC[C@H](N)C(=O)O; Ava = NCCCCC(=O)O; GABA = NCCCC(=O)O
Consider the following binders and their measured pKi readings.
# pKi: negative log10 of molar concentration; output just the value

Worked cases, pKi given:
Ac-CEH[dF]RWAC-NH2 (disulfide 1-8; SMILES CC(=O)N[C@H]1CSSC[C@@H](C(N)=O)NC(=O)[C@H](C)NC(=O)[C@H](Cc2c[nH]c3ccccc23)NC(=O)[C@H](CCCNC(=N)N)NC(=O)[C@@H](Cc2ccccc2)NC(=O)[C@H](Cc2c[nH]cn2)NC(=O)[C@H](CCC(=O)O)NC1=O) [Ac-c(Cys-Glu-His-D-Phe-Arg-Trp-Ala-Cys)-NH2]
5.77
Ac-[Nle]DH[dF]RW[Ava]K-NH2 (lactam 2-8) [Ac-Nle-c(Asp-His-D-Phe-Arg-Trp-Apn-Lys)-NH2]
6.52
Ac-[Nle][Pen]H[dF]RW[GABA][Pen]-NH2 (disulfide 2-8) [Ac-Nle-c(Pen-His-D-Phe-Arg-Trp-Gaba-Pen)-NH2]
6.75

INPUT: // Input: Ac-[Cha]DH[dF]RW[GABA]K-NH2 (lactam 2-8; SMILES CC(=O)N[C@@H](CC1CCCCC1)C(=O)N[C@H]1CC(=O)NCCCC[C@@H](C(N)=O)NC(=O)CCCNC(=O)[C@H](Cc2c[nH]c3ccccc23)NC(=O)[C@H](CCCNC(=N)N)NC(=O)[C@@H](Cc2ccccc2)NC(=O)[C@H](Cc2c[nH]cn2)NC1=O) [Ac-Cha-c(Asp-His-D-Phe-Arg-Trp-Gaba-Lys)-NH2] . Output its pKi only.
OUTPUT: 7.93
